# Tested on: A-375
# assay-text: Cytotoxicity in human A375 cells assessed as reduction in cell viability by Cell-titer-Lumi assay
# Format: functional, cell-based
Kindly state pIC50 for each of the entries shown.
Give bare numbers, as −log10 of the molar value.

compound	test-target	pIC50
CCCS(=O)(=O)Nc1ccc(F)c(C(=O)c2c[nH]c3ncc(-c4ccc(Cl)cc4)cc23)c1F	A-375	6.94
CCCS(=O)(=O)Nc1ccc(F)c(-n2cc(-c3cncnc3)c3nc(N(C)C4CCN(CC)CC4)ccc32)c1F	A-375	8.20

Pending compound:
Q: Can you look up pIC50 on A-375 for CCCS(=O)(=O)Nc1ccc(F)c(C(=O)c2c[nH]c3ncc(-c4ccc(CNC(=O)CCCCNc5ccc6c(c5)C(=O)N(C5CCC(=O)NC5=O)C6=O)cc4)cc23)c1F (stereo not drawn) ?
Result: 6.30

---

# System: A-375
# assay-text: Cytotoxicity in human A375 cells assessed as reduction in cell viability by Cell-titer-Lumi assay
# Type: functional, cell-based
Hi there, I'd appreciate the recorded IC50 for every entry that follows.
Give bare numbers, in nM.

Here's what some known entries look like.
compound	IC50, nM
CCCS(=O)(=O)Nc1ccc(F)c(-n2cc(-c3cncnc3)c3nc(N(C)C4CCN(C(=O)CCOCCOCCOCCNc5cccc6c5C(=O)N(C5CCC(=O)N(C)C5=O)C6=O)CC4)ccc32)c1F (stereo not drawn)	190
CCCS(=O)(=O)Nc1ccc(F)c(-n2cc(-c3cncnc3)c3nc(N(C)C4CCN(C(=O)CCOCCOCCOCCNc5cccc6c5C(=O)N(C5CCC(=O)NC5=O)C6=O)CC4)ccc32)c1F (stereo not drawn)	46.5

Now consider a different compound.
Q: # IC50 lookup, item CCCS(=O)(=O)Nc1ccc(F)c(C(=O)c2c[nH]c3ncc(-c4ccc(CNC(=O)CCCCNc5ccc6c(c5)C(=O)N(C5CCC(=O)N(C)C5=O)C6=O)cc4)cc23)c1F (stereo not drawn)
Result: 492

---

# test-target: Serine/threonine-protein kinase B-raf (Homo sapiens)
# Sequence (P15056 whole entry): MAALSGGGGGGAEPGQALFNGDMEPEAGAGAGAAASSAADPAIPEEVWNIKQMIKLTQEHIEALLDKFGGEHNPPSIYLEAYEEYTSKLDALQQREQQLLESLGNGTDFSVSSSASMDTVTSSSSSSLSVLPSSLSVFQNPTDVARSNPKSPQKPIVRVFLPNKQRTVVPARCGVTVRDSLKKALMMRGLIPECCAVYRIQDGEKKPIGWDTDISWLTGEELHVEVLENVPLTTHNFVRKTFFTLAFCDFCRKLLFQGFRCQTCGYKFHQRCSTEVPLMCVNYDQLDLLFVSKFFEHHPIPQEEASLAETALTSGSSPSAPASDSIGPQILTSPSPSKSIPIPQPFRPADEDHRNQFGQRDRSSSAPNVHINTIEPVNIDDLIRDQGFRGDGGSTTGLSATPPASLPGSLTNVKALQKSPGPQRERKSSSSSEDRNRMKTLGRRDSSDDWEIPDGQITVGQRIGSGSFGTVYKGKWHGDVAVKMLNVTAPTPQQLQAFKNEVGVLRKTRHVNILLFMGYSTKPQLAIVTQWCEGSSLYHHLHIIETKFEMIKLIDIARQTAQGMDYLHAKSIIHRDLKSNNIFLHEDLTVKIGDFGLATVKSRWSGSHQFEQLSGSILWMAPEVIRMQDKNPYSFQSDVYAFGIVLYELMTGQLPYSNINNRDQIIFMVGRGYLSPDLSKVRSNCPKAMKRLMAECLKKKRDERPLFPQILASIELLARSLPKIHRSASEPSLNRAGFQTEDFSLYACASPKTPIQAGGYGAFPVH
metric-name: Kd (nM)
Answers are plain numbers, in nM.

molecule	Kd / nM
CCCS(=O)(=O)Nc1ccc(F)c(C(=O)c2c[nH]c3ncc(-c4ccc(CNC(=O)CCCCNc5ccc6c(c5)C(=O)N(C5CCC(=O)N(C)C5=O)C6=O)cc4)cc23)c1F (stereo not given)	5.1
CCCS(=O)(=O)Nc1ccc(F)c(C(=O)c2c[nH]c3ncc(-c4ccc(CNC(=O)CCCCNc5ccc6c(c5)C(=O)N(C5CCC(=O)NC5=O)C6=O)cc4)cc23)c1F (stereo not given)	9.5
CCCS(=O)(=O)Nc1ccc(F)c(-n2cc(-c3cncnc3)c3nc(N(C)C4CCN(CC)CC4)ccc32)c1F	0.37
CCCS(=O)(=O)Nc1ccc(F)c(-n2cc(-c3cncnc3)c3nc(N(C)C4CCN(C(=O)CCOCCOCCOCCNc5cccc6c5C(=O)N(C5CCC(=O)NC5=O)C6=O)CC4)ccc32)c1F (stereo not given)	2.4

Attention now shifts to the item below.
Q: Which Kd value is on record for CCCS(=O)(=O)Nc1ccc(F)c(-n2cc(-c3cncnc3)c3nc(N(C)C4CCN(C(=O)CCOCCOCCOCCNc5cccc6c5C(=O)N(C5CCC(=O)N(C)C5=O)C6=O)CC4)ccc32)c1F (stereo not given) ?
Result: 2.6

---

# Test system: HT-29
# assay-text: Cytotoxicity in human HT-29 cells assessed as reduction in cell viability by Cell-titer-Lumi assay
# Assay type: functional, cell-based
metric-name: pIC50
One number for each entry, as −log10 of the molar value.

compound	pIC50
CCCS(=O)(=O)Nc1ccc(F)c(-n2cc(-c3cncnc3)c3nc(N(C)C4CCN(CC)CC4)ccc32)c1F	8.77
CCCS(=O)(=O)Nc1ccc(F)c(C(=O)c2c[nH]c3ncc(-c4ccc(Cl)cc4)cc23)c1F	6.79

Q: Please report the recorded pIC50 for CCCS(=O)(=O)Nc1ccc(F)c(C(=O)c2c[nH]c3ncc(-c4ccc(CNC(=O)CCCCNc5ccc6c(c5)C(=O)N(C5CCC(=O)N(C)C5=O)C6=O)cc4)cc23)c1F (stereo not drawn) .
Result: 6.34

Data credit: ChEMBL document CHEMBL4354871
